# tested-on: mutEGFR (D770_N771insNPG, T790) (Homo sapiens, UniProt P00533, INS770NPG/T790M)
# Construct: exact insNPG construct not described; in-house EGFR proteins were N-terminal GST fusions from baculovirus/insect cells (borders R669-A1210 given only for WT, insSVD, insASV)
# Sequence (P00533 with tags, fused parts or gaps INS770NPG/T790M limits assumed): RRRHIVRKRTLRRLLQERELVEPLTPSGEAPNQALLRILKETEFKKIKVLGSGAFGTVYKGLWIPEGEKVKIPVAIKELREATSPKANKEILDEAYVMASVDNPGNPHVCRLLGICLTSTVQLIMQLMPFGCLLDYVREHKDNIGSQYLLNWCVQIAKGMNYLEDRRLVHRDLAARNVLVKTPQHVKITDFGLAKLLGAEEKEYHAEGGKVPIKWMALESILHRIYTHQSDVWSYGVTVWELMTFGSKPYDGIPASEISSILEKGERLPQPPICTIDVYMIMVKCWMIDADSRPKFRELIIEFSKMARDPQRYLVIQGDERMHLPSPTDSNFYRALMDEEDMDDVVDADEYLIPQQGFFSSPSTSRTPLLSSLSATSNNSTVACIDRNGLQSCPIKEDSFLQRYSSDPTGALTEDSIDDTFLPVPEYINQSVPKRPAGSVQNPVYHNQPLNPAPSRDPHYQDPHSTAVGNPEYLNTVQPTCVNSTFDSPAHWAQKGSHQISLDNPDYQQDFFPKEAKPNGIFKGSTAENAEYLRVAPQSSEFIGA
# protocol-notes: mutEGFR (D770_N771insNPG, T790) kinase assay
# Format: biochemical
# condition: Table 2a, D770_N771insNPG
measurement-kind: IC50 (nM)
Please give a number only; it is taken to be in nM.

| compound | tested-on | number |
| --- | --- | --- |
| CN(C)CC#CC(=O)N1CCn2nc(-c3ccc(Cl)cc3F)c(-c3ccncc3)c2C1 | mutEGFR (D770_N771insNPG, T790) (Homo sapiens, UniProt P00533, INS770NPG/T790M) | 0.3 |

Request: Requested read-out: IC50. Entry: "NC1(C#CC(=O)N2CCn3nc(-c4ccc(F)cc4)c(-c4ccncc4)c3C2)CC1"
Response: 8.7

Request: Requested read-out: IC50. Entry: "C#CC(=O)N1CCn2nc(-c3ccc(F)cc3)c(-c3ccncc3)c2C1"
Response: 1.26
